Reference for the values: paper PMC12069442

METHOD NOTES: Rat pharmacokinetic study of ziprasidone and ziprasidone sulfoxide with resveratrol or quercetin
MEASUREMENT CONDITIONS: male, Sprague-Dawley, plasma, po, 15 mg/kg, t1/2z, ziprasidone 15 mg/kg oral + quercetin 50 mg/kg i.g., rats, n=6
PARAMETER MEASURED: half-life (h)
Return type: number; implicit unit h.

[ask] Can you share its half-life? I mean this molecule: O=C1Cc2cc(CCN3CCN(c4nsc5ccccc45)CC3)c(Cl)cc2N1
[reply] 3.79

----------
Tested on: rat liver microsomes (RLM)
METHOD NOTES: Inhibitor screening on ziprasidone metabolism in RLM
Format: in vitro ADME
MEASUREMENT CONDITIONS: 100 μM inhibitor, 0.3 mg/mL RLM, ziprasidone 10 μM, 20 min
Where a name gives a salt, the structure may show the parent alone.
param class (str): category from Relative activity (%); see ranges bottom end = under 70%, midrange = from 70% up to 90%, top end = 90% and over

Reference set, count: 4
{"COMPOUND": "COc1cc2ncnc(Nc3ccc(F)c(Cl)c3)c2cc1OCCCN1CCOCC1", "ASSIGNED LABEL": "bottom end"}
{"COMPOUND": "CCN(CC)CC(=O)Nc1c(C)cccc1C", "ASSIGNED LABEL": "top end"}
{"COMPOUND": "Clc1cccc(Cl)c1N=C1NCCN1 [Clonidine hydrochloride]", "ASSIGNED LABEL": "midrange"}
{"COMPOUND": "COC(=O)[C@H](c1ccccc1Cl)N1CCc2sccc2C1 [Clopidogrel hydrogen sulfate]", "ASSIGNED LABEL": "top end"}

[ask] For this compound, which bin applies? OC(CNCC(O)C1CCc2cc(F)ccc2O1)C1CCc2cc(F)ccc2O1 (stereo not drawn) [Nebivolol Hydrochloride]
[reply] bottom end

[ask] Can you check CCN(CC)CCNC(=O)c1ccc(N)cc1 [Procainamide hydrochloride] next?
[reply] top end

[ask] Now the compound COc1c(O)cc(O)c2c(=O)cc(-c3ccccc3)oc12
[reply] midrange

----------
METHOD NOTES: Rat pharmacokinetic study of ziprasidone and ziprasidone sulfoxide with resveratrol or quercetin
MEASUREMENT CONDITIONS: male, Sprague-Dawley, plasma, po, 15 mg/kg, AUC(0-t), ziprasidone 15 mg/kg oral + quercetin 50 mg/kg i.g., rats, n=6
PARAMETER MEASURED: AUC(0-t) (ng·h/mL)
Just the number please, in ng·h/mL, no unit attached.

[ask] # AUC(0-t) lookup, item O=C1Cc2cc(CCN3CCN(c4nsc5ccccc45)CC3)c(Cl)cc2N1
[reply] 9390

----------
METHOD NOTES: Rat pharmacokinetic study of ziprasidone and ziprasidone sulfoxide with resveratrol or quercetin
MEASUREMENT CONDITIONS: male, Sprague-Dawley, plasma, po, 15 mg/kg, CLz/F, ziprasidone 15 mg/kg oral + resveratrol 50 mg/kg i.g., rats, n=6
PARAMETER MEASURED: CL/F
A complete answer gives the number and then names the unit.

[ask] Find the recorded CL/F belonging to O=C1Cc2cc(CCN3CCN(c4nsc5ccccc45)CC3)c(Cl)cc2N1 and report it.
[reply] 150 mL/min/kg

----------
METHOD NOTES: Rat pharmacokinetic study of ziprasidone and ziprasidone sulfoxide with resveratrol or quercetin
MEASUREMENT CONDITIONS: male, Sprague-Dawley, plasma, po, 15 mg/kg, Vz/F, ziprasidone 15 mg/kg oral + quercetin 50 mg/kg i.g., rats, n=6
PARAMETER MEASURED: Vd/F (L/kg)
Express the result in L/kg but write the number alone.

[ask] Given the entry O=C1Cc2cc(CCN3CCN(c4nsc5ccccc45)CC3)c(Cl)cc2N1 , report its measured Vd/F.
[reply] 33.3
